- Test system: HCT-15
- assay_method_text: NCI tumour cell line growth inhibition, 48 h
recorded_endpoint: GI50

Here are 5 compounds together with their reported answers.
NCCNCC(O)CO (stereo not drawn) = > 100 µM
N#CC1C2CCC3(CC2CCN1C(=O)c1ccccc1)OCCO3 (stereo not drawn) = > 100 µM
C/N=c1/oc2ccccc2cc1C(N)=O = > 100 µM
Nc1nc(CCl)nc(N2CCOCC2)n1 = 16 µM
COc1ccc(C)cc1NC(=S)C#N = 27.5 µM

Consider the following items and state reported GI50 for each.
1. C=CCC12CCC(=O)C=C1CCC1(C2)OCCO1 (stereo not drawn)
2. Cc1cccc(-c2cc(O)c3cccnc3n2)c1
3. O=C(O)[C@@H]1OCCOCCO[C@@H](C(=O)O)[C@H](C(=O)O)OCCOCCO[C@H]1C(=O)O
4. Cc1cc2c(=O)cc(-c3ccncc3)oc2c(C(N)=O)c1C

Output:
> 100 µM
0.299 µM
> 55.8 µM
> 100 µM

====

- Tested on: DU-145
- assay_method_text: NCI tumour cell line growth inhibition, 48 h
The source made the active and inactive calls. Rule as the data show it: active = GI50 up to about 1.1 µM and inactive = higher.
recorded_endpoint: GI50

CC(=O)[C@@H]1C/C(=C\OCc2ccccc2)O[C@H]1C = > 100 µM (inactive)

Dear colleague, could you send me GI50 for each of the items below? Thanks.
1. O=C(O)c1nc2cc(C(F)(F)F)ccc2[nH]c1=O
2. Nc1nc(N)c(N=O)c(OCC2CCCCC2)n1

Output:
1: > 100 µM (inactive); 2: 7.45 µM (inactive)

====

- Tested on: RXF 393
- assay_method_text: NCI tumour cell line growth inhibition, 48 h
Activity calls are given as the source filed them. Rule as the data show it: active = GI50 up to about 1.1 µM and inactive = higher.
Form entry, call: pick from Yes (active), No (inactive)

For orientation, consider the following solved cases.
C/C(=N\Nc1ccc([N+](=O)[O-])cc1[N+](=O)[O-])c1ccc2ccccc2n1 = No
CCCCCCCCOC(=O)C12Oc3ccc(-c4ccc5c(c4O)C(=O)C4=C(O)CC(C)C(O)C4(C(=O)OCCCCCCCC)O5)c(O)c3C(=O)C1=C(O)CC(C)C2O (centres undefined) = No
[B].c1ccc([Si](OCCN2CC2)(c2ccccc2)c2ccccc2)cc1 = No

Task: Answer briefly: the call reported for CC1=CC2(O)OC3(CC2=C(C)C)C(C)CCC13 (centres undefined) in this assay.
Output: No

Task: Hey, what did the test say about Oc1ccc2ccccc2c1/N=N/c1ccc(F)cc1 ?
Output: No

Task: Outcome logged for CSc1ccc(Cc2cc(C(C)(C)C)cc(C(C)(C)C)c2O)cc1 in this assay:
Output: No

Task: How was Cc1ccc2c(O)cc(-c3ccc(C)s3)nc2n1 classified in this test?
Output: Yes

Task: Recorded call for Cc1cc(C(=O)NCCN(C)C)c2nc3ccccc3nc2c1 ?
Output: No

====

- System: HCC 2998
- assay_method_text: NCI tumour cell line growth inhibition, 48 h
Activity calls are given as the source filed them. No stated cut-off is given here; in the data, active = GI50 up to about 1.1 µM and inactive = higher.
Hi there, use one of these labels in your reply, thanks! active, inactive

CC(=O)OC1CC2(c3ccccc3)C(=O)c3ccccc3N2O1 (stereo unspecified) = inactive
O=c1n(-c2ccc(Cl)c(Cl)c2)c(=O)n(-c2ccc(Cl)c(Cl)c2)c(=O)n1-c1ccc(Cl)c(Cl)c1 = inactive

Task: What did this assay record as the result for CC(NC1=NCCO1)c1ccccc1Cl (stereo unspecified) ?
Output: inactive

Task: Please let me know the test result on file for S=CN1CCCCC1 .
Output: inactive

Task: Hi, sorry to bother you, what did the test record for CCOC(=O)/C(C(=S)Nc1ccccc1)=C(/N)N1CCCC1 ?
Output: inactive

Task: Each molecule tested received a call. Report the one for O=c1cccccc1NCCCCCCCCCNc1cccccc1=O .
Output: inactive

Values were extracted from ChEMBL document CHEMBL1201862.
